Molecular target: T1, CD32B (FcγRII-B) (UniProt P31994 43-217, limits assumed)
T1 construct: No species or construct stated
T1 sequence (looked up): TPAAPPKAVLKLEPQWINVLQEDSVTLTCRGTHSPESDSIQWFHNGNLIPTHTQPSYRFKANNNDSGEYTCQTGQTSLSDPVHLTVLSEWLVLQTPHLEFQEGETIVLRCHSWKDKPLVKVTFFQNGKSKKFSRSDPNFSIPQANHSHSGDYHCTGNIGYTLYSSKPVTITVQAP
Assay: Table 3; relative to wild-type Fc; method not stated
parameter: binding relative to wild-type Fc (fold)
Format: numeric value only, no unit, no commentary.

Entry Fc variant F243L R292P V305I P396L (other, UniProt P01857-1 99-330, looked up, name in EU numbering, domain: Fc region; positions are EU index) EPKSCDKTHTCPPCPAPELLGGPSVFLLPPKPKDTLMISRTPEVTCVVVDVSHEDPEVKFNWYVDGVEVHNAKTKPPEEQYNSTYRVVSILTVLHQDWLNGKEYKCKVSNKALPAPIEKTISKAKGQPREPQVYTLPPSRDELTKNQVSLTCLVKGFYPSDIAVEWESNGQPENNYKTTPLVLDSDGSFFLYSKLTVDKSRWQQGNVFSCSVMHEALHNHYTQKSLSLSPGK needs its binding relative to wild-type Fc (fold) filled in; supply it. 0.4

Entry Fc variant P247L D270E N421K (other, UniProt P01857-1 99-330, looked up, name in EU numbering, domain: Fc region; positions are EU index) EPKSCDKTHTCPPCPAPELLGGPSVFLFPPKLKDTLMISRTPEVTCVVVDVSHEEPEVKFNWYVDGVEVHNAKTKPREEQYNSTYRVVSVLTVLHQDWLNGKEYKCKVSNKALPAPIEKTISKAKGQPREPQVYTLPPSRDELTKNQVSLTCLVKGFYPSDIAVEWESNGQPENNYKTTPPVLDSDGSFFLYSKLTVDKSRWQQGKVFSCSVMHEALHNHYTQKSLSLSPGK needs its binding relative to wild-type Fc (fold) filled in; supply it. 0.58

Recorded values, source patent US20110097323A1.
